From: patent US20260242735A1

- Assayed System: human CD33 W22A (human, UniProt P20138 18-364)
- Sequence (P20138 18-364 W22A limits assumed): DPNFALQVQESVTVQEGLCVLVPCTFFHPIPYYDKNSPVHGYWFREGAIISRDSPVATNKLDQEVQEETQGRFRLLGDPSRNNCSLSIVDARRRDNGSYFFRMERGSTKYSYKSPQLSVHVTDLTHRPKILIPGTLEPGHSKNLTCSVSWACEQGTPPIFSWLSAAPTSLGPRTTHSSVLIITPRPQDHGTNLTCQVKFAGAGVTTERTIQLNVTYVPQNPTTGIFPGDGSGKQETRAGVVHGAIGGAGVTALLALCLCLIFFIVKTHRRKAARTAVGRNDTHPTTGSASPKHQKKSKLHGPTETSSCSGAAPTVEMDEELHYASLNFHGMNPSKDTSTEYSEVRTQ
- Measurement Protocol: alanine scan, flow cytometry;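 note: HEK293-T cells transiently expressing single-residue alanine mutants of CD33 (alanine swapped to serine), antibody binding read by fluorescence in duplicate, background-subtracted, expressed relative to wild-type CD33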
Quantity: Mean % WT Binding (% WT)
Note: unit % WT is implicit; provide only the numeric part.

Bench note: what Mean % WT Binding did Refmab #3 (antibody, V domains shown, Full-length format is human IgG1 Fc silent (PG-LALA); The alanine scan used IgG or Fab) VH: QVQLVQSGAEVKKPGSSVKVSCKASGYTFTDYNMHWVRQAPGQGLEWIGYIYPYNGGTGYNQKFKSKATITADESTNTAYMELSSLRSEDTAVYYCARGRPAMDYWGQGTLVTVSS VL: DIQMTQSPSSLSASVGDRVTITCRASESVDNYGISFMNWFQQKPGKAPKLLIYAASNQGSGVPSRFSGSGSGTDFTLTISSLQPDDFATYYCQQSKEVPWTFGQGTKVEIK show?
58.6

Given Refmab #1 (antibody, V domains shown, Full-length format is human IgG1 (Absolute Antibody Ab00283-10.0); The alanine scan used IgG or Fab; also called hP67.6) VH: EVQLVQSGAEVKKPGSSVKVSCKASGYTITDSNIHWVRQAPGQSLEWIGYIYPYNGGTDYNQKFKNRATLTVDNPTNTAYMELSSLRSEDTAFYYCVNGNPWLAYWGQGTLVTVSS VL: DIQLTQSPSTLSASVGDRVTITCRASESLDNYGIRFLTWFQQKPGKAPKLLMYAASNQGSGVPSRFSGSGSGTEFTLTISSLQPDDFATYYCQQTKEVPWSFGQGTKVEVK , state its recorded Mean % WT Binding.
79.4

Tell me the measured Mean % WT Binding of Refmab #2 (antibody, V domains shown, Full-length format is human IgG1 Fc silent (PG-LALA); The alanine scan used IgG or Fab) VH: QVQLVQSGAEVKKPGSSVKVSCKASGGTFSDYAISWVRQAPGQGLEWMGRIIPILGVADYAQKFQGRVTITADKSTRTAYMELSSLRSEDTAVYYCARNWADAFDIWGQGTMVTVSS VL: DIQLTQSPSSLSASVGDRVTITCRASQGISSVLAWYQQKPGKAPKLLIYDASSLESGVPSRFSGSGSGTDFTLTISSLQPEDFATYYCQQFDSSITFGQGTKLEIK , please.
110

Looking for the measured Mean % WT Binding of Refmab #4 (antibody, V domains shown, Full-length format is human IgG1 Fc silent (PG-LALA); The alanine scan used IgG or Fab) VH: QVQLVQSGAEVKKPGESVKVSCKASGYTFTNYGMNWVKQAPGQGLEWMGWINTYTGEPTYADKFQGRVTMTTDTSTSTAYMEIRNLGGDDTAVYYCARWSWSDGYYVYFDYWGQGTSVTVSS VL: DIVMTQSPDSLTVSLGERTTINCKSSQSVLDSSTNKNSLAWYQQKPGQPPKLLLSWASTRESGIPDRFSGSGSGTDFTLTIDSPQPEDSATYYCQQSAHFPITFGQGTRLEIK , can you help?
187
